This collection of values is drawn from the supplement of paper PMC11061612.

Test system: K5 (Thyroid Gland Carcinoma)
protocol-notes: combination Emax (second highest fraction inhibited in the dose matrix, 72 h); higher = more inhibition; extreme values may be limits of the assay
Parameter combination Emax: see the listing below.
Keep it simple and answer with nothing but the number.

Need combination Emax, item CCc1c2c(nc3ccc(O)cc13)-c1cc3c(c(=O)n1C2)COC(=O)[C@]3(O)CC [SN-38] + O=C(c1cc(Cc2n[nH]c(=O)c3ccccc23)ccc1F)N1CCN(C(=O)C2CC2)CC1 [Olaparib] (first compound max 0.3 µM, 7x7, partner max 10 µM)
0.505

We next turn to a different compound, shown below.
Need combination Emax, item Cn1cnc2c(F)c(Nc3ccc(Br)cc3Cl)c(C(=O)NOCCO)cc21 [Selumetinib] + C=CCn1c(=O)c2cnc(Nc3ccc(N4CCN(C)CC4)cc3)nc2n1-c1cccc(C(C)(C)O)n1 [AZD1775] (first compound max 10 µM, partner max 1 µM)
0.596
